- System: M-NFS-60 mouse myeloid leukemia lymphocytes
- assay: CSF-1R-related cell proliferation experiment (Cell Titer Glo), M-NFS-60 cells with M-CSF
- Assay type: cell-based
- condition label: Lymphocyte, 72 h, 3 days, CTG, absolute half maximal inhibition, * = average of multiple tests, read-out: Cytological experiment CSF-1R Absolute IC50
- Procedure: C. CSF-1R-Related Cell Proliferation Experiment Functional effects of compounds on cell proliferation were evaluated by using Cell Titer Glo (CTG) study in the present invention. […] Since ATP is an index for viable cell metabolism, CTG (Promega, #G7573) reagent is a homogeneous detection method for detecting the number of viable cells in the culture by quantifying ATP. […] 4. dosage effect was evaluated by testing the 3-fold serial dilutions of the compound; […]
Could you please report measured pIC50 for the items listed next?
Numbers only, as −log10 of the molar value.

CCn1cc(-c2cc(Oc3ccc(-c4cnc5n(c4=O)CCCN5C)nc3C)ccn2)cn1 | 6.44

Below are some compounds; for each one, tell me its pIC50.
1. Cc1nc(-c2cnc3n(c2=O)CCC(C)N3C)ccc1Oc1ccnc(-c2cnn(C)c2)c1 (stereo not drawn)
2. Cc1nc(-c2cnc3n(c2=O)CCCN3C)ccc1Oc1ccnc(-c2cnn(C)c2)c1

[6.90, 7.02]

From: patent US11130762B2
